Assignment: determine reported % Inhibition of hydrolysis of 3H-cGMP for the given compounds.
Test system: Type 1 Phosphodiesterase
assay.name: Phosphodiesterase (PDE) Inhibition, Type 1 Phosphodiesterase
Format: biochemical, bovine (coronary arteries)
condition.set: Type 1 PDE, at 10^-5 M, substrate 3H-cGMP 1.0 μM
Kindly answer with a numeric value in %, unit omitted.

Query block: # get_value(readout= % Inhibition of hydrolysis of 3H-cGMP, system= Type 1 Phosphodiesterase) for CCn1nc(C)c2nc(-c3ccccc3)[nH]c(=O)c21
Result block: 29

Query block: Missing value: % Inhibition of hydrolysis of 3H-cGMP, Type 1 Phosphodiesterase, entry Cc1nn(C)c2c(=O)[nH]c(-c3ccc([N+](=O)[O-])cc3)nc12 . Fill in?
Result block: 6

Query block: Param readout= % Inhibition of hydrolysis of 3H-cGMP; system= Type 1 Phosphodiesterase; entry= Cc1nn(C)c2c(=O)[nH]c(-c3ccc(C(F)(F)F)cc3)nc12 ; returns value.
Result block: 1

Query block: Form entry - test system: Type 1 Phosphodiesterase; read-out: % Inhibition of hydrolysis of 3H-cGMP; compound: Cc1ccc(-c2nc3c(C)nn(C)c3c(=O)[nH]2)cc1
Result block: 15

Query block: Entry COc1ccc(-c2nc3c(C)nn(C)c3c(=O)[nH]2)cc1OC , system Type 1 Phosphodiesterase: what % Inhibition of hydrolysis of 3H-cGMP was measured?
Result block: 17

Query block: Record lookup: for Type 1 Phosphodiesterase, what % Inhibition of hydrolysis of 3H-cGMP belongs to CCn1nc(C)c2nc(-c3ccncc3)[nH]c(=O)c21 ?
Result block: 19

Query block: Quick check: % Inhibition of hydrolysis of 3H-cGMP on Type 1 Phosphodiesterase, item Cc1nn(C)c2c(=O)[nH]c(-c3cccc([N+](=O)[O-])c3)nc12 ?
Result block: 18

Query block: Form: Entry = Cc1nn(C)c2c(=O)[nH]c(-c3ccc(Cl)cc3)nc12 | System = Type 1 Phosphodiesterase | % Inhibition of hydrolysis of 3H-cGMP = ____
Result block: 11

* * *

assay.system: adenosine A1 receptor (Rattus norvegicus, UniProt P25099)
Construct: Whole brain minus cerebellum and brainstem from male Long Evans rats
Sequence (P25099 1-326): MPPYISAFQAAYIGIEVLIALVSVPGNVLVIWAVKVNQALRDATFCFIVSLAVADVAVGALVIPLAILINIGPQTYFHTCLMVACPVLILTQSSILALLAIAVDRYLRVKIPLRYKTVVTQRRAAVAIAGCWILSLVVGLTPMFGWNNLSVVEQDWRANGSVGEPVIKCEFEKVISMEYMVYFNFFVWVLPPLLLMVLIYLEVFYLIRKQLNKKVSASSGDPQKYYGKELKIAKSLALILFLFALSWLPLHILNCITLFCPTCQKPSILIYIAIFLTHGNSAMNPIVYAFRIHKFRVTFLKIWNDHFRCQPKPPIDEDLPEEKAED
assay.name: Adenosine Receptor Binding - A1 Receptor Affinity (RBA1), [3H]-N6-cyclohexyladenosine displacement
condition.set: [3H]-CHA 1.0 nM, rat brain membranes, 25° C., one hour; read-out: RBA-1, IC50 for adenosine A1 receptor affinity
assay.metric: pIC50
When answering, recall that pIC50 equals minus log10 of the concentration in mol/L, and write that number alone.

Query block: Given the entry COc1ccccc1-c1nc2c(C)nn(C)c2c(=O)[nH]1 , report its measured pIC50.
Result block: 5.00

Query block: Quick check: pIC50 of Cc1ccc(-c2nc3c(C)nn(C)c3c(=O)[nH]2)cc1 ?
Result block: 6.38

Query block: Requested read-out: pIC50. Entry: Cc1nn(C)c2c(O)nc(-c3ccc(S(=O)(=O)O)cc3)nc12
Result block: 4.89
